Organism: Rattus norvegicus
assay.protocol: DrugMatrix - Regimen: Daily Repeat
Assay type: toxicity, organism-based, Sprague-Dawley
Set-up: regimen Daily Repeat, gender Male, age 6-8 weeks
test.context: in vivo, po, 0 mg/kg, 72 h, tissue Plasma, route oral GAVAGE, dose level Control, time 3 day, […]
recorded.endpoint: SODIUM (MEQ/L)
Answers are plain numbers, in MEQ/L.

Examples with their reported SODIUM follow.
INSERT INTO results (molecule, val) VALUES
  ('CN(CCOc1ccc(CC2SC(=O)NC2=O)cc1)c1ccccn1 (stereo not drawn)', 142.92),
  ('C#C[C@]1(O)CC[C@H]2[C@@H]3CCc4cc(O)ccc4[C@H]3CC[C@@]21C', 139.65);

Lab note: each molecule below needs its SODIUM filled in.
1. CC(CCc1ccc(O)cc1)NCCc1ccc(O)c(O)c1 (stereo not drawn)
2. CCn1cc(C(=O)O)c(=O)c2cc(F)c(N3CCNCC3)nc21
3. CC(=O)Nc1nnc(S(N)(=O)=O)s1 [ACETAZOLAMIDE]
4. CC(C)Cc1ccc(CC(=O)O)cc1
5. CC[C@H](C)C(=O)O[C@H]1C[C@H](O)C=C2C=C[C@H](C)[C@H](CC[C@@H](O)C[C@@H](O)CC(=O)O)[C@H]21
6. CC[C@H](C)C(=O)O[C@H]1C[C@@H](C)C=C2C=C[C@H](C)[C@H](CC[C@@H]3C[C@@H](O)CC(=O)O3)[C@H]21

Result:
[145, 139.65, 142.48, 145.8, 142.92, 141.03]

* * *

Species on record: Rattus norvegicus
assay.protocol: DrugMatrix - Regimen: Daily Repeat
Format: toxicity, organism-based, Sprague-Dawley
Set-up: regimen Daily Repeat, gender Male, age 6-8 weeks
test.context: in vivo, po, 0 mg/kg, 72 h, tissue Plasma, route oral GAVAGE, dose level Control, time 3 day, vehicle 100 % WATER
recorded.endpoint: CREATINE PHOSPHOKINASE (u/L)
Give bare numbers, in u/L.

INSERT INTO assay_data (molecule, val) VALUES
  ('O=C(O)c1cc(=O)c2c(OCC(O)COc3cccc4oc(C(=O)O)cc(=O)c34)cccc2o1', 123.33),
  ('CN1C2CCCC1CC(NC(=O)c1nn(C)c3ccccc13)C2 (configuration not stated)', 585),
  ('CNS(=O)(=O)Cc1ccc2[nH]cc(CCN(C)C)c2c1', 372.83),
  ('O=P1(N(CCCl)CCCl)NCCCO1 (configuration not stated) [CYCLOPHOSPHAMIDE ANHYDROUS]', 576.83),
  ('Nc1ccc(S(=O)(=O)Nc2nccs2)cc1', 585),
  ('CC[C@H]1OC(=O)[C@H](C)[C@@H](O[C@H]2C[C@@](C)(OC)[C@@H](O)[C@H](C)O2)[C@H](C)[C@@H](O[C@@H]2O[C@H](C)C[C@H](N(C)C)[C@H]2O)[C@](C)(OC)C[C@@H](C)C(=O)[C@H](C)[C@@H](O)[C@]1(C)O', 212),
  ('CCOC(N)=O', 263.67),
  ('CCN(CC)CC#CCOC(=O)C(O)(c1ccccc1)C1CCCCC1 (configuration not stated)', 506.83);

Lab note: each molecule below needs its CREATINE PHOSPHOKINASE filled in.
1. Nc1ccc(S(=O)(=O)Nc2ncccn2)cc1
2. Cc1c(N(C)CS(=O)(=O)[O-])c(=O)n(-c2ccccc2)n1C.[Na+] [DIPYRONE SODIUM]
3. CCCc1nn(C)c2c(=O)[nH]c(-c3cc(S(=O)(=O)N4CCN(C)CC4)ccc3OCC)nc12
4. CC[C@H]1OC(=O)[C@H](C)[C@@H](O[C@H]2C[C@@](C)(OC)[C@@H](O)[C@H](C)O2)[C@H](C)[C@@H](O[C@@H]2O[C@H](C)C[C@H](N(C)C)[C@H]2O)[C@](C)(O)C[C@@H](C)CN(C)[C@H](C)[C@@H](O)[C@]1(C)O
5. CCCCCCCCCCCCCCCC[n+]1ccccc1.[Br-]
6. CC(C)(C)NC[C@H](O)COc1nsnc1N1CCOCC1

Result:
1. 139.5
2. 777.67
3. 228.33
4. 211.33
5. 601.83
6. 585

Lab note: each molecule below needs its CREATINE PHOSPHOKINASE filled in.
1. OCCO
2. CCN[C@@H](C)Cc1cccc(C(F)(F)F)c1

Result:
228.33
139.5

Task: Quick one: CREATINE PHOSPHOKINASE for O=C(O)c1cccnc1 ?
Result: 1308.83

* * *

Species: Rattus norvegicus
assay.protocol: DrugMatrix - Regimen: Daily Repeat
Assay type: toxicity, organism-based, Sprague-Dawley
Design: regimen Daily Repeat, gender Male, age 6-8 weeks
test.context: in vivo, po, 0 mg/kg, 72 h, tissue Blood, route oral GAVAGE, dose level Control, time 3 day, vehicle .5 % CMC
Give MEAN CORPUSCULAR HEMOGLOBIN CONCENTRATION for every item shown.
Give bare numbers, in G/DL.

INSERT INTO assay_data (compound, val) VALUES
  ('Cc1cnc(C(=O)NCCc2ccc(S(=O)(=O)NC(=O)NC3CCCCC3)cc2)cn1 [GLIPIZIDE]', 38.98);

Lab note: each compound below needs its MEAN CORPUSCULAR HEMOGLOBIN CONCENTRATION filled in.
1. COc1ccc(/C=C/C(=O)Nc2ccccc2C(=O)O)cc1OC
2. CCCCC1C(=O)N(c2ccccc2)N(c2ccccc2)C1=O
3. CC[C@]1(O)CC[C@H]2[C@@H]3CCC4=CCCC[C@@H]4[C@H]3CC[C@@]21C
4. CCOC(=O)[C@H](CCc1ccccc1)N[C@@H](C)C(=O)N1Cc2ccccc2C[C@H]1C(=O)O
5. O=c1cc(-c2ccccc2)oc2ccc3ccccc3c12
6. COc1ccccc1OCC(O)COC(N)=O (stereo not given)

Result:
[36.85, 39.8, 32.08, 38.98, 31.32, 39.4]

Lab note: each compound below needs its MEAN CORPUSCULAR HEMOGLOBIN CONCENTRATION filled in.
1. Nc1cccc(Cl)c1
2. CO[C@H]1C[C@@H]2CC[C@@H](C)[C@@](O)(O2)C(=O)C(=O)N2CCCC[C@H]2C(=O)O[C@H]([C@H](C)C[C@@H]2CC[C@@H](O)[C@H](OC)C2)CC(=O)[C@H](C)/C=C(\C)[C@@H](O)[C@@H](OC)C(=O)[C@H](C)C[C@H](C)/C=C/C=C/C=C/1C
3. C[C@]12C/C(=C/O)C(=O)C[C@@H]1CC[C@@H]1[C@@H]2CC[C@@]2(C)[C@H]1CC[C@]2(C)O

Result:
32.23
38.88
31

* * *

Give CREATINE PHOSPHOKINASE for every item shown.
Organism: Rattus norvegicus
assay.protocol: DrugMatrix - Regimen: Daily Repeat
Format: toxicity, organism-based, Sprague-Dawley
Parameters: regimen Daily Repeat, gender Male, age 6-8 weeks
test.context: in vivo, po, 100 mg/kg, 120 h, tissue Plasma, route oral GAVAGE, dose level Low, time 5 day, vehicle .5 % CMC
Give bare numbers, in u/L.

INSERT INTO results (compound, unit_annotation, val) VALUES
  ('C#C[C@]1(O)CC[C@H]2[C@@H]3CCC4=Cc5oncc5C[C@]4(C)[C@H]3CC[C@@]21C [DANAZOL]', 'u/L', 326.33);

Lab note: each compound below needs its CREATINE PHOSPHOKINASE filled in.
1. CC[C@]1(O)CC[C@H]2[C@@H]3CCC4=CCCC[C@@H]4[C@H]3CC[C@@]21C
2. Nc1nc2c(c(=O)[nH]1)N(C=O)C(CNc1ccc(C(=O)N[C@@H](CCC(=O)O)C(=O)O)cc1)CN2 (some centres undefined) [LEUCOVORIN]

Result:
164
211.67

Task: Quick one: CREATINE PHOSPHOKINASE for CC=Cc1ccc(O)c(OC)c1 [ISOEUGENOL] ?
Result: 251.33

* * *

Species on record: Rattus norvegicus
assay.protocol: DrugMatrix - Regimen: Daily Repeat
Assay type: toxicity, organism-based, Sprague-Dawley
Design: regimen Daily Repeat, gender Male, age 6-8 weeks
test.context: in vivo, po, 0 mg/kg, 72 h, tissue Blood, route oral GAVAGE, dose level Control, time 3 day, vehicle .5 % CMC
Rule: measured ERYTHROCYTE COUNT below 6 x10E6/uL gets true; anything equal to or greater than 6 x10E6/uL gets false.

Answered examples (3):
INSERT INTO assay_data (compound, class) VALUES
  ('Cc1cnc(C(=O)NCCc2ccc(S(=O)(=O)NC(=O)NC3CCCCC3)cc2)cn1 [GLIPIZIDE]', 'true'),
  ('CC(C)(Sc1cc(C(C)(C)C)c(O)c(C(C)(C)C)c1)Sc1cc(C(C)(C)C)c(O)c(C(C)(C)C)c1', 'true'),
  ('COc1ccccc1OCC(O)COC(N)=O (centres undefined)', 'true');

Task: Please state whether ERYTHROCYTE COUNT is below 6 x10E6/uL for O=c1cc(-c2ccccc2)oc2ccc3ccccc3c12
Result: false

Task: Next compound: CO[C@H]1C[C@@H]2CC[C@@H](C)[C@@](O)(O2)C(=O)C(=O)N2CCCC[C@H]2C(=O)O[C@H]([C@H](C)C[C@@H]2CC[C@@H](O)[C@H](OC)C2)CC(=O)[C@H](C)/C=C(\C)[C@@H](O)[C@@H](OC)C(=O)[C@H](C)C[C@H](C)/C=C/C=C/C=C/1C
Result: true

Task: Next compound: COc1ccc(/C=C/C(=O)Nc2ccccc2C(=O)O)cc1OC
Result: true

Task: Next compound: C[C@@H](O)[C@H]1C(=O)N2C(C(=O)O)=C(S[C@@H]3CN[C@H](C(=O)N(C)C)C3)[C@H](C)[C@H]12
Result: true
